Molecular target: Sentrin-specific protease 7 (Homo sapiens) (UniProt Q9BQF6)
Experiment: SENP7 protease inhibitors, primary screen, biochemical, luminescence, uHTS (AID 434973)
Settings: recombinant SENP7, Z-RLRGG-aminoluciferin luminescence, 40 min; at 5 µM
Hit rate of the full screen: of about 330,000 compounds, about 4,900 (1.5%) were called active.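 The calls were made as follows: active = inhibition above about 50% at the single test dose (limit read from the data); inactive = the rest.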 For the sample, actives were picked, then their nearest neighbours and some compounds at random.
Respond using exactly one of the listed classes: TRUE (active), FALSE (inactive)

# count of solved cases: 3
# compound, label
data = [
    ("Cc1nn(C)c(C(=O)NNC(=S)NC2CCCCC2)c1Cl", "FALSE"),
    ("O=C(Oc1ccc(-c2nc(-c3ccccn3)no2)cc1)c1ccccc1", "TRUE"),
    ("COc1ccc(S(=O)(=O)n2nc(C)c(S(=O)(=O)N3CCOCC3)c2C)cc1", "FALSE"),
]

INPUT: Test call for this compound, please: CCNC(=S)N1CCC(c2nc3cc(C)c(C)cc3[nH]2)CC1
OUTPUT: FALSE

INPUT: Test call for this compound, please: S=c1[nH]nc(-c2cc(-c3ccccc3)n[nH]2)n1/N=C/c1c2ccccc2cc2ccccc12
OUTPUT: FALSE

INPUT: Test call for this compound, please: O=C(COC(=O)c1ccncc1)c1ccccc1
OUTPUT: FALSE

INPUT: Test call for this compound, please: O=C(NC(=S)N1CCN(Cc2ccccc2)CC1)c1ccccc1
OUTPUT: FALSE

INPUT: Test call for this compound, please: CCc1ccc(NC(=O)CN2C(=O)COc3ccc(S(=O)(=O)N4CCCC4)cc32)cc1
OUTPUT: FALSE

INPUT: Test call for this compound, please: O=C(CC1OC(=O)c2ccccc21)NC1CCCCC1 (stereo not drawn)
OUTPUT: FALSE

INPUT: Test call for this compound, please: Oc1ccccc1-c1cc(-c2ccc(Cl)cc2)n[nH]1
OUTPUT: TRUE

INPUT: Test call for this compound, please: O=C1CC2(CCCC2)C(=O)N1CN1CCN(S(=O)(=O)c2ccc(F)cc2F)CC1
OUTPUT: FALSE

INPUT: Test call for this compound, please: O=C(Cn1cnc2ccccc2c1=O)NNC(=O)c1ccccc1F
OUTPUT: FALSE

INPUT: Test call for this compound, please: O=C(COC(=O)/C=C/c1cccc(Cl)c1)NCc1cccs1
OUTPUT: FALSE

INPUT: Test call for this compound, please: CCN1C[C@@H]2[C@@H]3C(=O)N(Cc4ccccc4)C(=O)[C@@H]3[C@](Cc3ccccc3)(C(=O)OC)N2C1=NC1CCCCC1
OUTPUT: FALSE

INPUT: Test call for this compound, please: O=C(O)CCCN1C(=O)c2ccccc2Sc2ncccc21
OUTPUT: FALSE

INPUT: Test call for this compound, please: CC(C)C(=O)NCc1cc(-c2ccc(Cl)cc2)no1
OUTPUT: FALSE

INPUT: Test call for this compound, please: Cn1cccc1C(=O)OCC(=O)NCCc1ccccc1
OUTPUT: FALSE

INPUT: Test call for this compound, please: CCOc1ccc(C(=O)NCC(=O)N2CCCCCCC2)cc1OCC
OUTPUT: FALSE

INPUT: Test call for this compound, please: S=c1[nH]nc(-c2cc(-c3ccsc3)n[nH]2)n1-c1ccccc1
OUTPUT: FALSE

INPUT: Test call for this compound, please: CC1CN(c2cc(=O)n(-c3cccc(Br)c3)c(=O)[nH]2)CC(C)O1 (stereo not drawn)
OUTPUT: FALSE

INPUT: Test call for this compound, please: Cc1ccc(NC(=O)c2cc(-c3ccccc3O)n[nH]2)cc1C
OUTPUT: FALSE

INPUT: Test call for this compound, please: Cc1noc(C)c1COC(=O)COc1ccc(-c2ccccc2)cc1
OUTPUT: FALSE

INPUT: Test call for this compound, please: O=c1c2cc(-c3ccccc3)sc2nc2n1N=C(c1cccs1)CS2
OUTPUT: TRUE
